Listing of entries alongside the reported gamma-GTP.
Species on record: Rattus norvegicus
EXPERIMENT: Open TG-GATES - Regimen: Single
Type: toxicity, organism-based, Sprague-Dawley
Set-up: regimen Single, gender Male, age 6 weeks
CONDITION CONTEXT: in vivo, po, 0 mg/kg, 3 h, tissue Plasma, route gavage, dose level Control
Put down the number, then write its unit next to it.

Solved cases below.
C#C[C@]1(O)CC[C@H]2[C@@H]3CCc4cc(O)ccc4[C@H]3CC[C@@]21C
1.2 IU/L
CC(=N)S [THIOACETAMIDE]
1.8 IU/L
C[C@](N)(Cc1ccc(O)c(O)c1)C(=O)O
1.2 IU/L
CCSCC[C@H](N)C(=O)O
1 IU/L
CC(C)(S)[C@@H](N)C(=O)O
1.2 IU/L
CCC(C)(C)C(=O)O[C@H]1C[C@@H](C)C=C2C=C[C@H](C)[C@H](CC[C@@H]3C[C@@H](O)CC(=O)O3)[C@H]21
1.6 IU/L

With those in mind, consider the next molecule.
May I ask what gamma-GTP has been recorded for `Oc1ncnc2[nH]ncc12` ? 1.4 IU/L
